TARGET OF ASSAY: PD-1/PD-L1 protein/protein interaction (Homo sapiens, UniProt Q9NZQ7)
Construct: Recombinant human PD-L1 protein (19-238) with a His-tag at the C-terminus; purchased AcroBiosystems PD1-H5229 (PD-L1); PD1-H5257 (PD-1)
Sequence (Q9NZQ7 19-238): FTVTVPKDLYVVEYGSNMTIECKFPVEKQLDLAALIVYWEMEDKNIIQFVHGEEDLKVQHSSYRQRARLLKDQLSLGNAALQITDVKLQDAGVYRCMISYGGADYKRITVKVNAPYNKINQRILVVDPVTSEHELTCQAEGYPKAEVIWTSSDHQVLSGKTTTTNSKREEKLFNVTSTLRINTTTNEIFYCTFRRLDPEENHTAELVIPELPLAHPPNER
METHOD DESCRIPTION: PD-1/PD-L1 homogenous time-resolved fluorescence (HTRF) binding assay
CONDITION SUMMARY: HTRF, recombinant human PD-1 (Fc tag) / PD-L1 (His-tag), 25° C., PBS pH 7.4; read-out: IC50
QUANTITY MEASURED: IC50 (nM)
Write the answer as a number in nM, unit excluded.

Using known records, supply IC50 for Cc1c(Nc2nccc3cc(CN[C@@H](CO)C(=O)O)cnc23)cccc1-c1cccc(OCCCN2CCOCC2)c1C [Compound 10]
0.5

Using known records, supply IC50 for Cc1c(Nc2nccc3cc(CN4CCC(C(=O)O)C4)cnc23)cccc1-c1cccc(OCCCN2CCOCC2)c1C (stereo not drawn) [Compound 9]
1.2

Using known records, supply IC50 for Cc1c(Nc2nccc3cc(CNCCC(=O)O)cnc23)cccc1-c1cccc(OCCCN2CCOCC2)c1C [Compound 7]
0.4

----------
TARGET OF ASSAY: PD-1/PD-L1 protein/protein interaction (Homo sapiens)
Construct: Recombinant human PD-L1 protein (19-238) with a His-tag at the C-terminus; purchased AcroBiosystems PD1-H5229 (PD-L1); PD1-H5257 (PD-1)
METHOD DESCRIPTION: PD-1/PD-L1 homogenous time-resolved fluorescence (HTRF) binding assay
Experimental: Resolved Fluorescence (HTRF) Binding Assay The assays were conducted in a standard black 384-well polystyrene plate with a final volume of […]. Inhibitors were first serially diluted in DMSO and then added to the plate wells before the addition of other reaction components. The final concentration of DMSO in the assay was 1%. The assays were carried out at 25° C. in the PBS buffer (pH 7.4) with 0.05% Tween-20 and 0.1% BSA. […]
# IC50 listing for each entry below

Examples with their reported IC50 follow.
Cc1ccc(-c2cccc(Nc3nccc4cc(CN5CCCCC5C(=O)O)cnc34)c2C)c(C)c1OCCCN1CCOCC1 (centres unmarked): > 0.15 µM
Cc1c(Nc2nccc3cc(CNCC(=O)O)cnc23)cccc1-c1cccc(OCCCN2CCOCC2)c1Cl: < 0.002 µM
Cc1c(Nc2nccc3cc(CN4CCCCC4C(=O)O)cnc23)cccc1-c1ccc2cc(CCN3CCOCC3)[nH]c2c1 (centres unmarked): > 0.15 µM

Using known records, supply IC50 for Cc1c(Nc2nccc3cc(CN4CCCCC4C(=O)O)cnc23)cccc1-c1ccc(F)c(OCCCN2CCOCC2)c1 (centres unmarked)
0.002 to 0.01 µM

Using known records, supply IC50 for Cc1c(Nc2nccc3cc(CNC(C)(CO)C(=O)O)cnc23)cccc1-c1cccc(OCCCN2CCOCC2)c1C (centres unmarked)
< 0.002 µM

Using known records, supply IC50 for Cc1c(Nc2nccc3cc(CN4CCCCC4C(=O)O)cnc23)cccc1-c1cccc2c1CCN2CCCN1CCOCC1 (centres unmarked)
> 0.15 µM

Using known records, supply IC50 for Cc1c(Nc2nccc3cc(CN4CCCCC4C(=O)O)cnc23)cccc1-c1cccc(OCCCN2CCOCC2)c1 (centres unmarked)
0.002 to 0.01 µM

Using known records, supply IC50 for Cc1c(Nc2nccc3cc(CN4CCCCC4C(=O)O)cnc23)cccc1-c1ccc(Cl)c(OCCCN2CCOCC2)c1 (centres unmarked)
0.002 to 0.01 µM

Measured values drawn from patent US20210269440A1 for this set.
